Numbers sourced from patent US10065990B2.

Test system: SGC-7901 (human gastric cancer cells)
experimentSummary: MTT cancer cell growth inhibition
Assay type: cell-based
assayContext: Homo sapiens, SGC-7901, 72 h, MTT, 72 hours incubation, SGC-7901 cells; read-out: GI50 SGC-7901
assayEndpoint: GI50 (nM)
Value expressed in nM; do not type the unit.

A selection of reference data follows.
C/C=C1\NC(=O)c2ccc(SC)c(n2)CNC(=O)C[C@@H](/C=C/CCSC(=O)CCCCCCC)OC(=O)[C@H](Cc2ccccc2)NC1=O :: 33
C/C=C1\NC(=O)c2ncc(SC)c(n2)CNC(=O)C[C@@H](/C=C/CCSC(C)=O)OC(=O)[C@H](C)NC1=O :: 63

Kindly consider the entry below.
Query: Request body: readout GI50, system SGC-7901 (human gastric cancer cells), query C/C=C1\NC(=O)c2nc(ccc2F)CNC(=O)C[C@@H](/C=C/CCS)OC(=O)[C@H](Cc2cccc3ccccc23)NC1=O . Return the value.
Reply: 42

###

Recorded GI50, one value per entry.
Test system: K562 (human leukemia cells)
experimentSummary: MTT cancer cell growth inhibition
Format: cell-based
assayContext: Homo sapiens, K562, 72 h, MTT, 72 hours incubation, K562 cells; read-out: GI50 K562
Value expressed in nM; do not type the unit.

C/C=C1\NC(=O)c2nc(ccc2F)CNC(=O)C[C@@H](/C=C/CCSC(C)=O)OC(=O)[C@H](Cc2ccc(O)cc2)NC1=O :: 29
C/C=C1\NC(=O)c2cc(F)cc(n2)CNC(=O)C[C@@H](/C=C/CCSC(C)=O)OC(=O)[C@H](CCCCN)NC1=O :: 35
C=C1NC(=O)c2nc(ccc2F)CNC(=O)C[C@@H](/C=C/CCSC(C)=O)OC(=O)[C@H](C)NC1=O :: 53

Query: Requested field: GI50. Item: C/C=C1\NC(=O)c2cc(SC)cc(n2)CNC(=O)C[C@@H](/C=C/CCSC(=O)CCCCCCC)OC(=O)[C@H](C)NC1=O
Reply: 23

Query: Moving on to C/C=C1\NC(=O)c2cccc(n2)CNC(=O)C[C@@H](/C=C/CCSC(C)=O)OC(=O)[C@H](Cc2cccc3ccccc23)NC1=O
Reply: 32

Query: Moving on to C/C=C1\NC(=O)c2nc(ccc2F)CNC(=O)C[C@@H](/C=C/CCSC(=O)CCC)OC(=O)[C@H](C(C)C)NC1=O
Reply: 57

###

Tested on: BGC-823 (human gastric cancer cells)
experimentSummary: MTT cancer cell growth inhibition
Assay type: cell-based
assayContext: Homo sapiens, BGC-823, 72 h, MTT, 72 hours incubation; read-out: GI50 BG
assayEndpoint: GI50 (nM)
Value expressed in nM; do not type the unit.

Query: Requested field: GI50. Item: C/C=C1\NC(=O)c2cc(F)cc(n2)CNC(=O)C[C@@H](/C=C/CCSC(C)=O)OC(=O)[C@H](CCCCNC(=O)OCC2c3ccccc3-c3ccccc32)NC1=O
Reply: 30

Query: Moving on to C/C=C1\NC(=O)c2nc(ccc2F)CNC(=O)C[C@@H](/C=C/CCSC(=O)CC)OC(=O)[C@H](C(C)C)NC1=O
Reply: 50

Query: Moving on to C/C=C1\NC(=O)c2cc(F)cc(n2)CNC(=O)C[C@@H](/C=C/CCSC(=O)CCCCCC)OC(=O)[C@H](C(C)C)NC1=O
Reply: 60

###

system: HDAC11 (Homo sapiens, UniProt Q96DB2)
Sequence (Q96DB2 1-347): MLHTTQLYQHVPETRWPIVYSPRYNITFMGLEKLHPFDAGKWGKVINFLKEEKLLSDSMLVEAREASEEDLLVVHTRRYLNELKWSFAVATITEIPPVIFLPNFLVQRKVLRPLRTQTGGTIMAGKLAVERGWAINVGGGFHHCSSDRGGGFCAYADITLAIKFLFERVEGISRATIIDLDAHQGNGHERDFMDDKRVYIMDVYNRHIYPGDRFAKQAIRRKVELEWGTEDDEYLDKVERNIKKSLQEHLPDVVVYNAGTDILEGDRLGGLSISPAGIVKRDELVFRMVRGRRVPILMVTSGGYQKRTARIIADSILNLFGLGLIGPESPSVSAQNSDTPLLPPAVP
experimentSummary: HDAC biochemical activity measurement (fluorescent substrate deacetylation);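 further: HDAC11 enzyme acting on an acetyl-lysine fluorogenic substrate, then a developer frees the fluorophore, read at excitation 360 nm and emission 460 nm, IC50 over a compound dilution series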
Recorded IC50, one value per entry.
Value expressed in nM; do not type the unit.

C/C=C1\NC(=O)c2cccc(n2)CNC(=O)C[C@@H](/C=C/CCSC(C)=O)OC(=O)[C@H](CC)NC1=O :: 103
C/C=C1\NC(=O)c2nc(ccc2F)CCNC(=O)C[C@@H](/C=C/CCSC(C)=O)OC(=O)[C@H](C(C)C)NC1=O :: 93

Kindly consider the entry below.
Query: Requested field: IC50. Item: C/C=C1\NC(=O)c2cc(SC)cc(n2)CNC(=O)C[C@@H](/C=C/CCSC(=O)CCCCCC)OC(=O)[C@H](C(C)C)NC1=O
Reply: 95

###

System: MDA-MB-231 (breast cancer cells)
experimentSummary: MTT cancer cell growth inhibition
Assay type: cell-based
assayContext: Homo sapiens, MDA-MB-231, 72 h, read-out: GI50 MDA-MB-231, MTT, 72 hours incubation, MDA-MB-231 cells
The label yes is reserved for GI50 strictly under 50 nM; no covers values equal to or above it.

Answered examples (6):
C/C=C1\NC(=O)c2cccc(n2)CNC(=O)C[C@@H](/C=C/CCSC(=O)CCCCCCC)OC(=O)[C@H](CCSC)NC1=O [Compound 240] :: yes
C/C=C1\NC(=O)c2nc(ccc2F)CNC(=O)C[C@@H](/C=C/CCS)OC(=O)[C@H](Cc2ccccc2)NC1=O [Compound 115] :: yes
C/C=C1\NC(=O)c2ccc(SC)c(n2)CNC(=O)C[C@@H](/C=C/CCSC(=O)CCCC)OC(=O)[C@H](C(C)C)NC1=O [Compound 158] :: yes
C/C=C1\NC(=O)c2ccc(F)c(n2)CNC(=O)C[C@@H](/C=C/CCSC(C)=O)OC(=O)[C@@H](C)NC1=O [Compound 102] :: yes
C/C=C1\NC(=O)c2nc(ccc2F)CNC(=O)C[C@@H](/C=C/CCSC(C)=O)OC(=O)[C@H](CCCCNC(=O)OCC2c3ccccc3-c3ccccc32)NC1=O [Example 75] :: yes
C/C=C1\NC(=O)c2cc(F)cc(n2)CNC(=O)C[C@@H](/C=C/CCSC=O)OC(=O)[C@H](C(C)C)NC1=O [Compound 52] :: yes

Query: Given C/C=C1\NC(=O)c2cccc(n2)CNC(=O)C[C@@H](/C=C/CCSC(=O)CCCCCCC)OC(=O)[C@H](C)NC1=O [Compound 11] , is recorded GI50 strictly lower than 50 nM?
Reply: no

Query: Moving on to CC(C)=C1NC(=O)c2cc(F)cc(n2)CNC(=O)C[C@@H](/C=C/CCS)OC(=O)[C@H](C(C)C)NC1=O [Compound 137]
Reply: yes

###

Recorded GI50, one value per entry.
Test system: Huh-7 (human hepatoma cells)
experimentSummary: MTT cancer cell growth inhibition
Format: cell-based
assayContext: Homo sapiens, Huh-7, 72 h, MTT, 72 hours incubation, Huh-7 cells; read-out: GI50 Huh-7
Give me the value, and tack the unit on after it.

A selection of reference data follows.
C/C=C1\NC(=O)c2ccc(F)c(n2)CNC(=O)C[C@@H](/C=C/CCSC(=O)CCCCCCC)OC(=O)[C@H](C(C)C)NC1=O [Example 32] :: 38 nM
C/C=C1\NC(=O)c2ccc(SC)c(n2)CNC(=O)C[C@@H](/C=C/CCSC(=O)CCCCCC)OC(=O)[C@H](C(C)C)NC1=O [Compound 152] :: 28 nM

Kindly consider the entry below.
Query: Requested field: GI50. Item: C/C=C1\NC(=O)c2cc(SC)cc(n2)CNC(=O)C[C@@H](/C=C/CCSC(=O)CC)OC(=O)[C@H](C(C)C)NC1=O [Compound 163]
Reply: 107 nM

###

Recorded GI50, one value per entry.
System: HT1080 (human fibrosarcoma cells)
experimentSummary: MTT cancer cell growth inhibition
Type: cell-based
assayContext: Homo sapiens, HT-1080, 72 h, MTT, 72 hours incubation; read-out: GI50 HT1
Value expressed in nM; do not type the unit.

C/C=C1\NC(=O)c2nc(ccc2F)CNC(=O)C[C@@H](/C=C/CCSC(C)=O)OC(=O)[C@H](CCCCN)NC1=O :: 60
C/C=C1\NC(=O)c2cc(F)cc(n2)CNC(=O)C[C@@H](/C=C/CCSC(=O)CCCCCC)OC(=O)[C@H](C(C)C)NC1=O :: 90

Kindly consider the entry below.
Query: Requested field: GI50. Item: C/C=C1\NC(=O)c2cccc(n2)NC(=O)C[C@@H](/C=C/CCSC(C)=O)OC(=O)[C@H](C(C)C)NC1=O
Reply: 50

###

Recorded GI50, one value per entry.
Test system: SGC-7901 (human gastric cancer cells)
experimentSummary: MTT cancer cell growth inhibition
Format: cell-based
assayContext: Homo sapiens, SGC-7901, 72 h, MTT, 72 hours incubation, SGC-7901 cells; read-out: GI50 SGC-7901
Value expressed in nM; do not type the unit.

A selection of reference data follows.
C/C=C1\NC(=O)c2nc(ccc2SCC)CNC(=O)C[C@@H](/C=C/CCSC(=O)CCCCCC)OC(=O)[C@H](C(C)C)NC1=O :: 63
C=C1NC(=O)c2cccc(n2)CNC(=O)C[C@@H](/C=C/CCS)OC(=O)[C@H](C)NC1=O :: 57

Query: Requested field: GI50. Item: C/C=C1\NC(=O)c2ccc(SC)c(n2)CNC(=O)C[C@@H](/C=C/CCSC(C)=O)OC(=O)[C@H](Cc2ccc(O)cc2)NC1=O
Reply: 43

Query: Moving on to C/C=C1\NC(=O)c2nc(ccc2F)CNC(=O)C[C@@H](/C=C/CCSC(=O)CCCC)OC(=O)[C@H](C(C)C)NC1=O
Reply: 41

Query: Moving on to C/C=C1\NC(=O)c2nc(ccc2SC)CNC(=O)C[C@@H](/C=C/CCSC(C)=O)OC(=O)[C@H](Cc2ccccc2)NC1=O
Reply: 43

Query: Moving on to C/C=C1\NC(=O)c2nc(ccc2SC)CNC(=O)C[C@@H](/C=C/CCSC(=O)CCCCCCC)OC(=O)[C@H](Cc2ccccc2)NC1=O
Reply: 23

Query: Moving on to C=C1NC(=O)c2ccc(F)c(n2)CNC(=O)C[C@@H](/C=C/CCS)OC(=O)[C@H](C)NC1=O
Reply: 53

Query: Moving on to C=C1NC(=O)c2ccc(SC)c(n2)CNC(=O)C[C@@H](/C=C/CCSC(C)=O)OC(=O)[C@H](C(C)C)NC1=O
Reply: 82
